Test system: OVCAR-4 ovarian
Assay: NCI tumour cell line growth inhibition, 48 h
Endpoint: TGI

| Molecule | Reported Measurement |
| --- | --- |
| O=C(Nc1cccc2c1[nH]c1c(-c3ccccc3)nccc12)c1ccccc1[N+](=O)[O-] | > 100 µM |
| CCOC(=O)C(NC(=O)c1ccccc1)(Nc1ccc(Cl)cc1C(F)(F)F)C(F)(F)F (centres undefined) | > 100 µM |
| CC1C(OC2O[C@@H]3O[C@@]4(C)CC[C@H]5[C@H](C)CC[C@@H](C2C)[C@@]35O4)O[C@@H]2O[C@@]3(C)CC[C@H]4[C@H](C)CC[C@@H]1[C@@]24O3 (some centres undefined) | > 50 µM |

Okay, now this molecule:
What the record says about CC1OC(OC2C(OC3CCC4(C)C(CCC5(C)C4CC=C4C6CC(C)(C)CCC6(C(=O)O)CCC45C)C3(C)CO)OCC(O)C2O)C(O)C(O)C1O (centres undefined) : TGI is 30.5 µM

* * *

Test system: SK-MEL-28 melanoma
Test: NCI tumour cell line growth inhibition, 48 h; in the data active means GI50 below about 0.43 µM; inactive means the rest
Field 'call' accepts yes (active), no (inactive)

Past entries and their recorded results:
| Compound | Measured Target | Label Class |
| --- | --- | --- |
| CC(=O)[CH-]C(=O)c1ccccc1.CC(=O)[CH-]C(=O)c1ccccc1.C[C@]12CCC(=O)C=C1CC[C@@H]1C2CC[C@@]2(C)C1CC[C@@H]2[O-].C[C@]12CCC(=O)C=C1CC[C@@H]1C2CC[C@@]2(C)C1CC[C@@H]2[O-].Cl.[Ti+4] (stereo partly specified) | SK-MEL-28 melanoma | no |
| COc1ccc(/C=C/C(=O)c2ccc(OC)c(OC)c2)cc1O | SK-MEL-28 melanoma | no |
| O=c1oc2ccc(Br)cc2c(=O)n1-c1ccc(I)cc1F | SK-MEL-28 melanoma | yes |
| N#C[Se]CCCNS(=O)(=O)C1CC2C=CC1C2 (stereo unspecified) | SK-MEL-28 melanoma | no |
| COc1ccc(/C=C2\C=C(c3ccccc3)N(CCc3ccccc3)C2=O)cc1OC | SK-MEL-28 melanoma | no |

GET /call?item= "CN1CCN(c2ccc3nc(-c4ccc5nc(-c6ccc(O)cc6)[nH]c5c4)[nH]c3c2)CC1" returns the recorded outcome of this test.
no

Called result for COc1ccc(C2C(C)C(=O)C(C)C(c3ccc(OC)cc3)N2N=O)cc1 (stereo unspecified)
no

Recorded test call requested for O=C1OCC2=C1C(c1ccc(Cl)c(Cl)c1)c1cc3c(cc1N2CCO)CCC3 (stereo unspecified)
yes

Test call for this compound, please: "COc1cc(-c2c(C#N)c(N)nc(N3CCOCC3)c2C#N)cc(OC)c1OC"
no

Outcome? "O=C(Nc1ccc(/C=C/c2ccc(NC(=O)c3cc(S(=O)(=O)O)c4cccnc4c3O)cc2S(=O)(=O)O)c(S(=O)(=O)O)c1)c1cc(S(=O)(=O)O)c2cccnc2c1O"
no

Query: recorded result category for "Oc1cc2ccccc2c(-c2c(O)c(O)cc3ccccc23)c1O" in this test
no

Hi, do you know how "CN1C/C=C/CCOc2cccc(c2)-c2ccnc(n2)Nc2cccc(c2)C1" came out in this test?
yes

Fill in: this test's call for CCN(CC)C1CCC(Nc2c(C(C)=O)cnc3ccc(-c4ccc(O)c(Cl)c4)cc23)CC1 (stereo unspecified) is ___
no

Tell me the recorded outcome of this test for COC1=CC(c2ccc[nH]2)=N/C1=C\c1[nH]c(C)c(C(=O)CCCCC(=O)Oc2ccc3c(c2)CCC2C3CC[C@]3(C)[C@@H](O)CC[C@@H]23)c1C (stereo partly specified) .
no

I'd appreciate the recorded outcome for CCCCCCCCCCCCCCCCC(=O)O.CCCCCCCCCCCCCCCCCC(=O)O.CCCCCCCCCCCCCCCCCC(=O)O.CCCCCCCCCCCCCCCCCC(=O)O.CCCCCCCCCCCCCCCCCC(=O)O.CO[CH-]OC12COC1CC(O)C1(C)C(O)C(OC(C)O)C3=C(C)C(OC(=O)C(O)C([NH-])c4ccccc4)CC(O)(C(OC(=O)c4ccccc4)C21)C3(C)C.[Cu+].[Zn].[Zn].[Zn].[Zn].[Zn] (stereo unspecified) from this test.
no

How was "Cn1c(/C=C/[N+](=O)[O-])cc2ccccc21" classified in this test?
no

All values here come from PubChem BioAssay (NCI).
